Each recorded value in this set is attributed to patent US20220073604A1.

# systemTested: T1, bacterially produced human IL-6 (human, UniProt P05231 30-212)
# T1 construct: also called bactIL-6; prokaryotic IL-6
# runDescription: SPR; purified Fab; IL-6 coated on CM5 chip;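 note: dissociation rate taken from the wash phase, association rate fitted over the injection phase with analyte concentration and dissociation rate as inputs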
koff values by entry
Write down the numeric answer in s⁻¹ and omit the unit.

Given item Fab 24C9 (Fab, V domains shown, Fab) VH: QVQLVESGGGLVQPGGSLRLSCAASGFTFSSYRMYWVRQPPGKGLEWVSAISAGGGSTYYGDSVKGRFTISRDNAKNTVYLQMNSLKPEDTALYYCKKSTWADGESDYWGQGTQVTVSS VL: QTVVTQEPSLSVSPGGTVTLTCGLSSGSVTASNYPGWFQQTPGQAPRALIYSTNDRHSGVPSRFSGSISGNKAALTITGAQPEDEADYYCALDIGDITEFGGGTHLTVLG , the value recorded as its koff is 0.00037

GET /value?item= Fab 18C7 (Fab, V domains shown, Fab; also called 18C7 (090-423)) VH: EVQLVESGPGLVKPSQTLSLTCTVSGGSITASFDAWSWIRQPPGKGLEWMGVIAYDGSTYYSPSLKSRTSISRDTSKNQFSLQLSSVTPEDTAVYYCARKSSWLIGYGMDYWGKGTLVTVSS VL: QAGLTQPSALSVTLGQTAKITCQGGSLGSSYAHWYQQKPGQAPVLVIYDDDSRPSGIPERFSGSSSGGRATLTISGAQAEDEGDYYCQSADSSGNAAVFGGGTHLTVLG &field=koff returns 0.0011
